assay_target: Dual specificity testis-specific protein kinase 1 (Homo sapiens); note: in the data inactive means no Kd found up to 30 µM
Sequence (Q15569 whole entry): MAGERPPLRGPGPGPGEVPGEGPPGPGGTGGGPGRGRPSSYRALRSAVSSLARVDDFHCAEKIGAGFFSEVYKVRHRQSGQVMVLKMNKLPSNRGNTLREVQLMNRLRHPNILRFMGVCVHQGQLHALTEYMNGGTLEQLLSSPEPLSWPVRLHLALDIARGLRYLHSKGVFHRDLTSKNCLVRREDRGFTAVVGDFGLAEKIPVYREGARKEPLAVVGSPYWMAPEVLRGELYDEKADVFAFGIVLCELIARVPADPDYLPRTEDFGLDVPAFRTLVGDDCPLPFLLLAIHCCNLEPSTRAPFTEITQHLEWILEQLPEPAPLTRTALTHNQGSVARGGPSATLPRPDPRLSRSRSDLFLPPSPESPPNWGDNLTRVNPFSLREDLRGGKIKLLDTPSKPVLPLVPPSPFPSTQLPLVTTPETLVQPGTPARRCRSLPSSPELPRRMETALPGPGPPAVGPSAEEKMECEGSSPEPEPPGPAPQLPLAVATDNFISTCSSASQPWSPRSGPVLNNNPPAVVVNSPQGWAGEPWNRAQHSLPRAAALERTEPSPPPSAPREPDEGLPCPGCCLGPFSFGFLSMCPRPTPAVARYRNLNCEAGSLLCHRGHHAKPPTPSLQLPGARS
Active and inactive are the calls of the source.
Hello, when you answer, please use one of the following outcomes: active, inactive

# molecule, class_name
rows = [
    ("O=C1NC(=O)[C@@H](c2cn3c4c(cccc24)CCC3)[C@@H]1c1c[nH]c2ccccc12 [TIVANTINIB]", "inactive"),
]

**Query** Could you kindly confirm the outcome this assay logged for "CCCCCCCCCCCCCCCCCCOP(=O)([O-])OC1CC[N+](C)(C)CC1" ?
**Result** inactive

**Query** Record: "C[C@@H](N)c1ccc(C(=O)Nc2ccnc3[nH]ccc23)cc1"
**Result** inactive

**Query** Record: "CO[C@H]1C[C@@H]2CC[C@@H](C)[C@@](O)(O2)C(=O)C(=O)N2CCCC[C@H]2C(=O)O[C@H]([C@H](C)C[C@@H]2CC[C@@H](O)[C@H](OC)C2)CC(=O)[C@H](C)/C=C(\C)[C@@H](O)[C@@H](OC)C(=O)[C@H](C)C[C@H](C)/C=C/C=C/C=C/1C"
**Result** inactive

**Query** Record: "CCNC(=O)C#Cc1ccc2c(c1)NC(=O)/C2=C(\Nc1ccc(CN(C)C)cc1)c1ccccc1"
**Result** inactive

**Query** Record: "CC(=O)NCC(=O)N1[C@@H]2CC[C@H]1c1ccc(Nc3ncc(C(F)(F)F)c(NC4CCC4)n3)cc12"
**Result** inactive

**Query** Record: "N#CC1(c2ccc(NC(=O)c3cccnc3NCc3ccncc3)cc2)CCCC1"
**Result** inactive

**Query** Record: "COc1cc([C@@H]2c3cc4c(cc3[C@H](O)[C@H]3COC(=O)[C@@H]23)OCO4)cc(OC)c1OC"
**Result** inactive

src = ChEMBL document CHEMBL3991601
